test system: HOP-92 NSCLC; experiment: NCI tumour cell line growth inhibition, 48 h
Collected log10 of TGI values appear next to each entry.
Parameter value (number): base-10 log of TGI in µM.

Use these answered entries as a reference point.
[
  {
    "compound": "NC1CC(=O)c2cscc21 (stereo not drawn)",
    "assay_value": 1.70
  },
  {
    "compound": "COC(=O)[C@@]12C3=NO[C@]1(C(=O)OC)C(O[Si](C)(C)C(C)(C)C)[C@H]1OC(C)(C)O[C@H]1[C@@H]2C(OCc1ccccc1)CC3 (stereo partly drawn)",
    "assay_value": 1.35
  },
  {
    "compound": "CCCCCCCC(=O)SCC/C=C/[C@@H]1CC(=O)NCc2cccc(n2)C2=N[C@@](C)(CS2)C(=O)N[C@@H](C(C)C)C(=O)N1",
    "assay_value": 0.97
  },
  {
    "compound": "CC1OC(OC2C(OC(=O)[C@]34CCC(C)(C)C[C@H]3C3=CC[C@@H]5[C@@]6(C)CC[C@H](OC7OC(C(=O)O)C(O)C(O)C7O)C(C)(C)[C@@H]6CC[C@@]5(C)[C@]3(C)C[C@H]4O)OCC(O)C2O)C(O)C(O)C1OC1OCC(OC2OCC(O)C(O)C2O)C(O)C1O (stereo partly drawn)",
    "assay_value": 1.29
  }
]

Turning now to a further record.
Record request: log10 of TGI value, item CC(=O)OC(C)C(=O)C1c2cccc(O)c2C(=O)c2c(O)cc(C)cc21 (stereo not drawn)
0.01

----------
system: MDA-MB-231 breast; test: NCI tumour cell line growth inhibition, 48 h
Classify by measured TGI: condition met if it is equal to or exceeds 7 µM, condition not met if it is smaller.

Illustrative cases are given below, each with its answer.
[
  {
    "compound": "C=C(C)[C@@H]1CCC2=C[C@@H](OC2=O)[C@@H](C(=C)C)C2=CC(C(=O)O)=C(C1)O2",
    "target_or_test_system": "MDA-MB-231 breast",
    "group": "condition met"
  },
  {
    "compound": "NC1c2c(Br)sc(N3CCCC3)c2C(=O)C1O (stereo unspecified)",
    "target_or_test_system": "MDA-MB-231 breast",
    "group": "condition met"
  },
  {
    "compound": "COc1cc(-c2ccc(Br)[nH]2)[nH]c1C=NCC(C)C",
    "target_or_test_system": "MDA-MB-231 breast",
    "group": "condition not met"
  },
  {
    "compound": "Cc1sc(Nc2ccc(Nc3nc(-c4ccccc4)c(C)s3)cc2)nc1-c1ccccc1",
    "target_or_test_system": "MDA-MB-231 breast",
    "group": "condition met"
  }
]

Is TGI at least 7 µM? Consider O=c1n(CC2CO2)c(=O)n(CC2CO2)n1CC1CO1 (stereo unspecified)
condition met

Is TGI at least 7 µM? Consider `O=C1OCN(c2ccccc2)C12CCN(Cc1ccccc1)CC2`
condition met

Is TGI at least 7 µM? Consider `CN(C)CCCNC1=C(Cl)C(=O)c2ccccc2C1=O`
condition not met

Is TGI at least 7 µM? Consider NC1CC(=O)c2cscc21 (stereo unspecified)
condition met

Is TGI at least 7 µM? Consider C/C=C/C(C#N)(/C=C/c1ccccc1)OP1(=O)OC(c2ccccc2)C(C)N1C (stereo unspecified)
condition met

Is TGI at least 7 µM? Consider `Cc1ccc2c(c1)[nH]c(=S)n2C=C(C(N)=O)C(N)=O`
condition met

Is TGI at least 7 µM? Consider `CN(C)c1ccc(-c2cc(-c3ccc(Nc4nc(Nc5ccc(Cl)cc5)nc(Nc5ccc(Cl)cc5)n4)cc3)no2)cc1`
condition met
